The values you see were collected from PubChem BioAssay (NCI).

Reported growth inhibition values for a set of compounds
# method_notes: NCI Yeast Anticancer Drug Screen. Data for the bub3 strain (AID 167)
# applied_conditions: S. cerevisiae bub3 mutant strain, at 50.0 µM, active compounds read high
# Experimental: Growth inhibition of yeast strains with defined genetic alterations is measured as a screen for potential anti-cancer activity. Selected strains with alterations in DNA damage repair or cell cycle control were exposed to compounds and growth inhibition was measured relative to vehicle treated controls. The strain used in this assay is bub3
About 79,000 compounds went through this panel and 15% of them were active in at least one assay; those are over-represented in the sample as a whole. Where a SMILES comes first, the peptide text is derived from it. [ ]: non-standard residue; d: D form. The star is where a group is joined. ξ: configuration not given here. NMeF = CN[C@@H](Cc1ccccc1)C(=O)O; NMeV = CN[C@H](C(=O)O)C(C)C; ξNMeN = CNC(CC(N)=O)C(=O)O; NMeA = CN[C@@H](C)C(=O)O; ξNMeV = CNC(C(=O)O)C(C)C; Boc = CC(C)(C)OC(=O)*
outcome_measure: growth inhibition (%)

[[record]]
compound = "CC1C2CC(CC2(C)O)C1(C)C (centres undefined)"
test_value = -3.3

[[record]]
compound = "N#C/C(=C\\c1cccnc1)c1ccc(Br)cc1"
test_value = 43.5

[[record]]
compound = "CN(C)NC(=O)Nc1ccc2ccccc2c1"
test_value = -24.2

[[record]]
compound = "O/N=C1\\c2ccccc2-c2cccc(I)c21"
test_value = 1.1

[[record]]
compound = "O=c1[nH]c2nc(Cl)nc(Cl)c2[nH]1"
test_value = 8.3

[[record]]
compound = "C[n+]1ccn(S(=O)(=O)[O-])c1"
test_value = -19.6

[[record]]
compound = "CC1(C(=O)O)CCCN1 (centres undefined)"
test_value = -0.95

[[record]]
compound = "O=S1(=O)CC2C3CC(Oc4ccccc4)C(C3)C2C1 (centres undefined)"
test_value = -26.6

[[record]]
compound = "CC1(C)N=C(Oc2ccccc2)n2nccc2N1"
test_value = -18.3

[[record]]
compound = "CCN(C(=S)Nc1cccc(C(F)(F)F)c1)c1ccccc1"
test_value = 41

[[record]]
compound = "O=C(NCc1ccccc1)c1ccc([N+](=O)[O-])cc1"
test_value = 22.8

[[record]]
compound = "O=C(/C(=C\\c1ccccc1)c1ccccc1)c1ccccc1"
test_value = 28.2

[[record]]
compound = "O=C(c1ccco1)C(O)c1ccccc1 (centres undefined)"
test_value = -11.9

[[record]]
compound = "CSC1=NC(C)(C)N=C(Oc2cc(Cl)cc(Cl)c2)N1"
test_value = -27.5

[[record]]
compound = "O=C(O)Cn1c[n+](NC(=O)Cc2ccccc2)cn1"
test_value = -34.5

[[record]]
compound = "C=CCc1oc(C)nc1CCCC"
test_value = 5.85

[[record]]
compound = "O=C(/C=C(/Nc1ccccc1)c1ccccc1)c1ccccc1"
test_value = 15.9

[[record]]
compound = "CC(=O)Oc1c(OC(C)C)c(C)c(O[Si](C(C)C)(C(C)C)C(C)C)c2[nH]c3ccccc3c12"
test_value = -12.4

[[record]]
compound = "O=Cc1cc(Cl)cc(Cl)c1"
test_value = 8.95

[[record]]
compound = "COc1cc2nncc(SCc3ccc(Cl)cc3Cl)c2cc1OC"
test_value = 1.2

[[record]]
compound = "CS(=O)(=O)OCCC(COS(C)(=O)=O)NC(=O)c1ccccc1 (centres undefined)"
test_value = -10.3

[[record]]
compound = "OC1(c2ccccc2)CCN(C/C=C/c2ccccc2Cl)CC1"
test_value = 57.6

[[record]]
compound = "C/C(=N\\N=C(N)N)c1sc(-c2nc(C)c(/C(C)=N/N=C(N)N)s2)nc1C"
test_value = 6.85

[[record]]
compound = "CCCNCC(O)CNc1ccc(Cl)cc1 (centres undefined)"
test_value = -4.3

[[record]]
compound = "COC(=O)[C@H](C)N(C)C(=O)C(CC(N)=O)N(C)C(=O)[C@H](Cc1ccccc1)N(C)C(=O)[C@@H]1CCCN1C(=O)[C@H](C(C)C)N(C)C(=O)C(C(C)C)N(C)C(=O)[C@@H](NC(=O)OC(C)(C)C)C(C)C (some centres undefined) (Boc-V[ξNMeV][NMeV]P[NMeF][ξNMeN][NMeA]-OMe)"
test_value = 8.65

[[record]]
compound = "CC(=O)C1=CCC2c3[nH]c4ccccc4c3CCN2C1 (centres undefined)"
test_value = 1.5

[[record]]
compound = "CSCCCCCCSC"
test_value = -5.35

[[record]]
compound = "NNCCc1n[nH]c(=O)n1N"
test_value = 5.1

[[record]]
compound = "O=C1C2Nc3ccccc3N=C2OC1c1cccc([N+](=O)[O-])c1 (centres undefined)"
test_value = 20.6

[[record]]
compound = "CSCC[C@H](NC(C)=O)B1OCCO1"
test_value = -4.6

[[record]]
compound = "NC(=S)N/N=C(\\CCC(=O)Nc1ccccc1[N+](=O)[O-])CC(=O)c1ccco1"
test_value = -19.8

[[record]]
compound = "O=C1OC(Oc2ccccc2OC2OC(=O)c3ccccc32)c2ccccc21 (centres undefined)"
test_value = -5.05

[[record]]
compound = "Cc1cc(N(CCC#N)CCC#N)ccc1/C=C1N=C(/C=C\\c2ccccc2)N(NC(=O)CC(=O)Nc2ccccc2Cl)C\\1=O"
test_value = 2.8

[[record]]
compound = "CN(C)C(=O)C1C2CCCC(CC2)C1C(=O)N(C)C (centres undefined)"
test_value = 18

[[record]]
compound = "CCOc1cccc(N)c1"
test_value = -41.7

[[record]]
compound = "O=C(Nc1nc2ncn(CCNCc3ccccc3)c2c(=O)[nH]1)c1ccccc1"
test_value = 15.4

[[record]]
compound = "C=CCOC(=O)c1ccccc1O"
test_value = -21.2

[[record]]
compound = "COc1ccc(C(=O)Nc2ccccc2CCC2CCCCN2C)cc1 (centres undefined)"
test_value = 1.15

[[record]]
compound = "CN1CCC(c2ccccc2)(c2ccccc2)OC1c1ccccc1 (centres undefined)"
test_value = 8.85

[[record]]
compound = "CC(=O)Nc1cc(Cl)cc2[nH]c(C)nc12"
test_value = 12.8

[[record]]
compound = "Cn1c(=O)c2c(ncn2CCCCn2ccnc2[N+](=O)[O-])n(C)c1=O"
test_value = -1.25

[[record]]
compound = "O=C(NCCCl)NCC1CCCO1 (centres undefined)"
test_value = -4.75

[[record]]
compound = "Oc1ccc2ccc(O)cc2c1"
test_value = 11.8

[[record]]
compound = "COC(=O)C(=O)c1c(C(=O)OC)nc2nnc(N)n2c1C1CC1"
test_value = -5.35

[[record]]
compound = "CCC(c1ccc(OC)cc1)C(C(C)=O)c1ccc(OC)cc1 (centres undefined)"
test_value = 25.6

[[record]]
compound = "O=C(CCl)NCCCCCNC(=O)CCl"
test_value = 15.2

[[record]]
compound = "NC1C2C=CC(C2)C1C(=O)O (centres undefined)"
test_value = -26.6

[[record]]
compound = "CCOC(=O)c1nc(SC)sc1NC(=O)c1ccccc1[N+](=O)[O-]"
test_value = 3

[[record]]
compound = "CC(=O)NC(Cc1ccccc1)c1ccccc1 (centres undefined)"
test_value = 21.6

